Where do these numbers come from? They come from ChEMBL document CHEMBL6109144.

# method: Fraction of the dose absorbed in Sprague-Dawley rat at 5 mg/kg, po measured up to 24 hrs by LC-MS/MS analysis
# Format: ADME, organism-based
# run.conditions: in vivo, read-out: Fabs
measure.name: Fa at 24 h

compound=COc1cc(C(=O)O)cc2c1nc(CN1CC=C(c3cccc(OCc4ccc(C5CC(F)(F)C5)cc4F)n3)CC1)n2C[C@@H]1CCO1 result=2.43%
compound=O=C(O)c1ccc2nc(CN3CC=C(c4cccc(OCc5ccc(C6CC(F)(F)C6)cc5F)n4)CC3)n(C[C@@H]3CCO3)c2n1 result=54.2%
compound=O=C(O)c1ccc2nc(CN3CCC(Oc4cccc(COc5ccc6cnn(CC(F)F)c6c5F)n4)CC3)n(C[C@@H]3CCO3)c2n1 result=2.2%
compound=O=C(O)c1cc(F)c2nc(CN3CCC(c4cccc(OCc5ccc(C6CC(F)(F)C6)cc5F)n4)CC3)n(C[C@@H]3CCO3)c2c1 result=6.7%
compound=O=C(O)c1ccc2nc(CN3CCC(Oc4cccc(COc5ccc(Cl)c6ccoc56)n4)CC3)n(C[C@@H]3CCO3)c2n1 result=13.4%
compound="N#Cc1ccc(COc2cccc(C3CCN(Cc4nc5ccc(C(=O)O)cc5n4C[C@@H]4CCO4)CC3)n2)c(F)c1 [DANUGLIPRON]" result=35.1%
compound=O=C(O)c1ccc2nc(Cc3ccc(-c4cccc(OCc5ccc(C6CC(F)(F)C6)cc5F)n4)cc3F)n(C[C@@H]3CCO3)c2c1 result=2.86%
compound=O=C(O)c1ccc2nc(CN3CCC(Oc4cccc(Cc5ccc(Cl)c6c5OCC6)n4)CC3)n(C[C@@H]3CCO3)c2n1 result=28.5%
compound=O=C(O)c1ccc2nc(CN3CCC(Oc4cccc(COc5ccc6cnn(CC(F)F)c6c5)n4)CC3)n(C[C@@H]3CCO3)c2n1 result=10.8%
compound=COc1cc(C(=O)O)cc2c1nc(CN1CCC(c3cccc(OCc4ccc(C5CC(F)(F)C5)cc4F)n3)CC1)n2C[C@@H]1CCO1 result=1.99%
compound=O=C(O)c1ccc2nc(CN3CC=C(c4cccc(OCc5ccc(C6CC(F)(F)C6)cc5F)n4)CC3)n(C[C@@H]3CCO3)c2c1 result=3.63%
